Answer each item with its documented relative activity (%).
target: UniProt A0A1L0GHW3; assay: Substrate specificity of purified D-amino acid oxidase; assay type: biochemical, Candida intermedia NBRC0761; details: purified enzyme; activity to D-Phe as 100%; each substrate in place of DL-phenylalanine
Sequence (A0A1L0GHW3 entry or part of it): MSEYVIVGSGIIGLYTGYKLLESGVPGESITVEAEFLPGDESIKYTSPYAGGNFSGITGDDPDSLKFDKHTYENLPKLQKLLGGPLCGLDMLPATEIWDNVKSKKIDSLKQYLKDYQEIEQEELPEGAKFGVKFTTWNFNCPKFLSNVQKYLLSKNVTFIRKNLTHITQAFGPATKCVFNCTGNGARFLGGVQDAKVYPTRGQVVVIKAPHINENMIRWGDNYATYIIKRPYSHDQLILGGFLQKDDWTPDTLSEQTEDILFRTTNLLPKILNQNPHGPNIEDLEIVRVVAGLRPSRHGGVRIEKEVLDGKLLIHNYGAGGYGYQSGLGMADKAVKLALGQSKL
Kindly provide the numeric value in % only, without the unit symbol.

q: Identify measured relative activity (%) associated with C[C@@H](N)C(=O)O [D-Ala]
a: 129.1

q: Identify measured relative activity (%) associated with NCCCC[C@@H](N)C(=O)O [D-Lys]
a: 0.0

q: Identify measured relative activity (%) associated with CCC[C@H](N)C(=O)O [L-Norvaline]
a: 0.0

q: Identify measured relative activity (%) associated with NCC(=O)O [Gly]
a: 0.0

q: Identify measured relative activity (%) associated with O=C(O)[C@H]1CCCN1 [D-Pro]
a: 44.3

q: Identify measured relative activity (%) associated with C[C@H](N)C(=O)O [L-Ala]
a: 0.0

q: Identify measured relative activity (%) associated with N[C@H](CO)C(=O)O [D-Ser]
a: 11.3

q: Identify measured relative activity (%) associated with N[C@@H](C(=O)O)c1ccc(O)c(O)c1 [D-3,4-dihydroxy-phenylglycine]
a: 5.7

q: Identify measured relative activity (%) associated with N[C@H](CCC(=O)O)C(=O)O [D-Glu]
a: 0.0

q: Identify measured relative activity (%) associated with N[C@H](Cc1ccc(F)cc1)C(=O)O [D-p-F-Phe]
a: 167.2

q: Identify measured relative activity (%) associated with NC(=O)C[C@@H](N)C(=O)O [D-Asn]
a: 5.8

q: Identify measured relative activity (%) associated with CCCC(N)C(=O)O (racemic) [DL-Norvaline]
a: 93.8

q: Identify measured relative activity (%) associated with CC[C@@H](C)[C@@H](N)C(=O)O [D-Ile]
a: 16.6

q: Identify measured relative activity (%) associated with CSCC[C@@H](N)C(=O)O [D-Met]
a: 100.5

q: Identify measured relative activity (%) associated with NC(CCBr)C(=O)O (racemic) [DL-2-amino-4-Br-butyric acid]
a: 17.2

q: Identify measured relative activity (%) associated with CSCC[C@H](N)C(=O)O [L-Met]
a: 0.0

q: Identify measured relative activity (%) associated with NC(=O)CC[C@@H](N)C(=O)O [D-Gln]
a: 5.8

q: Identify measured relative activity (%) associated with NC(N)=NCCCC(N)C(=O)O [D-Arg]
a: 0.05

q: Identify measured relative activity (%) associated with N[C@H](CC(=O)O)C(=O)O [D-Asp]
a: 0.0

q: Identify measured relative activity (%) associated with CC(C)C[C@@H](N)C(=O)O [D-Leu]
a: 96.7

q: Identify measured relative activity (%) associated with CCC(C(=O)O)c1ccccc1 (racemic) [DL-α-phenylbutyric acid]
a: 194.7

q: Identify measured relative activity (%) associated with N[C@H](Cc1c[nH]cn1)C(=O)O [D-His]
a: 4.2

q: Identify measured relative activity (%) associated with CC(C)[C@@H](N)C(=O)O [D-Val]
a: 27.3

q: Identify measured relative activity (%) associated with O=C(O)[C@@H]1CCCN1 [L-Pro]
a: 0.0

q: Identify measured relative activity (%) associated with C[C@H](O)[C@@H](N)C(=O)O [D-Thr]
a: 4.7
